In this section, each of the binders is paired with its reported pIC50.
Biological target: T1, full-length beta-Catenin (Uniprot ID P35222) (Homo sapiens (Human), UniProt P35222 1-781)
T1 construct: also called bCat; B-Catenin
T1 sequence: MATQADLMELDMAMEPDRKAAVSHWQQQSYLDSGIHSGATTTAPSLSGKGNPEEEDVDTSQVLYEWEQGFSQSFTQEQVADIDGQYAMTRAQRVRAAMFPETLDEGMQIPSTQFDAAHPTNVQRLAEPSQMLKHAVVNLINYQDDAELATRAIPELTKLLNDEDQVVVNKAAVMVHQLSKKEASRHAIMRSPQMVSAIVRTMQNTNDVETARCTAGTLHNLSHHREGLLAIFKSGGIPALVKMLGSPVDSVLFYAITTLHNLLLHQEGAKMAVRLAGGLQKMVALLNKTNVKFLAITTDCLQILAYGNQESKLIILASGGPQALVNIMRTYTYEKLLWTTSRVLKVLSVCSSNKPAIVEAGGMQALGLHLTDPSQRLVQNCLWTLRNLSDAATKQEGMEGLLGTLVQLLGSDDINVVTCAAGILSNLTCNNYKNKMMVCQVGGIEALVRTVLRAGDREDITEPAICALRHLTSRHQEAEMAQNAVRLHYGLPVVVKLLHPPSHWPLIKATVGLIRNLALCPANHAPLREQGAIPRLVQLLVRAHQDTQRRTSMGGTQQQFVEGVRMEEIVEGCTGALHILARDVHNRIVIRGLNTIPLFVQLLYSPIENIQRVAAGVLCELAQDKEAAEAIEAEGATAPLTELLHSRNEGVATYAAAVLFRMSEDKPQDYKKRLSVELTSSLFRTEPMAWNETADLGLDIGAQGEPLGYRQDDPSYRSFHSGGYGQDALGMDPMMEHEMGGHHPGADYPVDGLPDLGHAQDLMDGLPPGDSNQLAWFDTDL
Test: fluorescence polarization competition; full-length beta-catenin, competitor 5FAM-TCF4(10-53) probe
pIC50: −log10 of the molar value. Starred links: 1 amine or outer side, 2 acyl side, 3 side chain; linkers in the order of their positions; H or OH if unused. Positions of bridges follow the written chain, without caps; N, C: chain ends. Non-standard residues stand in square brackets, D forms with d. Primed or numbered codes have the meaning given here. B5(11) = 2,2-bis(4-pentenyl)glycine = 2-amino-2-(pent-4-en-1-yl)hept-6-enoic acid (stitching residue, bears both staples), C=CCCCC(CCCC=C)(N[*:1])C(=O)[*:2]; Bta = N[C@@H](Cc1csc2ccccc12)C(=O)O; αAllylPro = C=CC[C@@]1(C(=O)O)CCCN1; NMeH = CN[C@@H](Cc1c[nH]cn1)C(=O)O; S8 = C=CCCCCCC[C@](C)(N)C(=O)O

{"BINDER": "XDLXDEAAFNXFXT (not fully specified; N-terminal Ac; C-terminal NH2; PL3 at 1, B5 at 4, S8 at 11, BztA at 13; stapled PL3-B5 and B5-S8 by olefin metathesis, Stapled peptide; same description as I-749, earlier eluting staple isomer composition; also called Ac-PL3-Asp-Leu-B5-Asp-Glu-Ala-Ala-Phe-Asn-S8-Phe-BztA-Thr-NH2) [I-748]", "pIC50": 7.27}
{"BINDER": "XDLXDEAAFNXFXQI (not fully specified; N-terminal Ac; C-terminal NH2; PL3 at 1, B5 at 4, S8 at 11, BztA at 13, dIle (D-Ile) at 15; stapled PL3-B5 and B5-S8 by olefin metathesis, Stapled peptide; also called Ac-PL3-Asp-Leu-B5-Asp-Glu-Ala-Ala-Phe-Asn-S8-Phe-BztA-Gln-dIle-NH2) [I-735]", "pIC50": 6.61}
{"BINDER": "Ac-[αAllylPro]DL[B5(11)]DEAAFN[S8]F[Bta][NMeH]-NH2 (staple 1-4, 4-11; not fully specified, Stapled peptide; same description as I-746, later eluting staple isomer composition; also called Ac-PL3-Asp-Leu-B5-Asp-Glu-Ala-Ala-Phe-Asn-S8-Phe-BztA-NMeHis-NH2) [I-747]", "pIC50": 5.62}
